# MIC [ppm] E. coil listing for each entry below
Test system: Escherichia coli NCTC 8196
Test: MIC, microtitre dilution test (growth by optical density at 620 nm)
Type: cell-based
Settings: Table 5
endpoint: MIC [ppm] E. coil

CCCN1CCC2c3c([nH]c4cc(C)ccc34)C3C(=O)NC(=O)C3C2C1 (stereo not shown) = >120 ppm
CCCN1CCC2c3c([nH]c4cc(Cl)ccc34)C3C(=O)NC(=O)C3C2C1 (stereo not shown) = >120 ppm
CCCN1CCC2c3c([nH]c4cc(C(F)(F)F)ccc34)C3C(=O)NC(=O)C3C2C1 (stereo not shown) = 60 ppm
CCCN1CCC2c3c([nH]c4cccc(OCC(O)CNC(C)C)c34)C3C(=O)NC(=O)C3C2C1 (stereo not shown) = >120 ppm
